Just for reference, ChEMBL document CHEMBL3826895 is where these values come from.

Record form. Attribute: pIC50. Fill in for each entry.
Molecular target: Dihydropteroate synthase (Bacillus anthracis, UniProt Q81VW8)
Test: Inhibition of fluorescein-labeled probe binding to Bacillus anthracis N-terminal His-tagged DHPS incubated for 1 hr in presence of sodium pyrophosphate by fluorescence polarization assay
Give bare numbers, as −log10 of the molar value.

Nc1nc2ncc(CNc3ccc(S(=O)(=O)Nc4ccccn4)cc3)nc2c(=O)[nH]1 ... 5.60
Nc1ccc(S(=O)(=O)c2ccc(NCc3cnc4nc(N)[nH]c(=O)c4n3)cc2)cc1 ... 4.95

Okay, next one:
Endpoint output: pIC50 of `Cc1noc(NS(=O)(=O)c2ccc(NCc3cnc4nc(N)[nH]c(=O)c4n3)cc2)c1C` . Value?
5.09

* * *

Target: Dihydropteroate synthase (Bacillus anthracis, UniProt Q81VW8)
Sequence (Q81VW8 whole entry): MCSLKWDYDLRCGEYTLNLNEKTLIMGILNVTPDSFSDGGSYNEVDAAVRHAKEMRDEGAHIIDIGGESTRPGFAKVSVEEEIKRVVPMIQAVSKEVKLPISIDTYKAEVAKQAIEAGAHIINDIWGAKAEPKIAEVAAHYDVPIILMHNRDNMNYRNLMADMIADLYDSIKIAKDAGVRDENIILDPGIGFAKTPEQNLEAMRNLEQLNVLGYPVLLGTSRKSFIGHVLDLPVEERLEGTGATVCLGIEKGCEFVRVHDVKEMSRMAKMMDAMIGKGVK
Assay: Inhibition of fluorescein-labeled probe binding to Bacillus anthracis N-terminal His-tagged DHPS incubated for 1 hr in presence of sodium pyrophosphate by fluorescence polarization assay
pIC50: −log10 of the molar value.
Tag: Met if measured pIC50 is not below 5, Not met if it is.

Answered cases to consult:
COc1cc(NS(=O)(=O)c2ccc(NCc3cnc4nc(N)[nH]c(=O)c4n3)cc2)nc(OC)n1 ... Met
Cc1cc(NS(=O)(=O)c2ccc(NCc3cnc4nc(N)[nH]c(=O)c4n3)cc2)no1 ... Met

# evaluate next
Could you verify whether the entry `CC(=O)NS(=O)(=O)c1ccc(NCc2cnc3nc(N)[nH]c(=O)c3n2)cc1` shows pIC50 of no less than 5?
Not met
